System: 138582-337-R-J1-PDC spheroids with HUVEC/MSC, viability
Assay: Anticancer human tumor 138582-337-R-J1-PDC patient-derived Merkel cell tumor cell line growth inhibition [IpAb]; active = viability on the fitted dose curve at most 10% of control; inactive = the rest
Details: second compound 0.1 µM; first compound 10 µM
Outcomes: YES = active, NO = inactive

CCCS(=O)(=O)Nc1ccc(F)c(C(=O)c2c[nH]c3ncc(-c4ccc(Cl)cc4)cc23)c1F + CCN1CCN(Cc2ccc(Nc3ncc(F)c(-c4cc(F)c5nc(C)n(C(C)C)c5c4)n3)nc2)CC1 :: NO
Cn1ncc(Cl)c1-c1cc(C(=O)NC(CN)Cc2cccc(F)c2)sc1Cl (centres undefined) + CC(C)NCC(C(=O)N1CCN(c2ncnc3c2C(C)CC3O)CC1)c1ccc(Cl)cc1 :: YES
Cn1nccc1Nc1nccc(-c2ccn(C(CO)c3ccc(Cl)c(F)c3)c(=O)c2)n1 (centres undefined) + CC(C)NCC(C(=O)N1CCN(c2ncnc3c2C(C)CC3O)CC1)c1ccc(Cl)cc1 :: NO
C=CCn1c(=O)c2cnc(Nc3ccc(N4CCN(C)CC4)cc3)nc2n1-c1cccc(C(C)(C)O)n1 + CC(C)NCC(C(=O)N1CCN(c2ncnc3c2C(C)CC3O)CC1)c1ccc(Cl)cc1 :: NO

---

Test system: 138582-337-R-J1-PDC spheroids with HUVEC/MSC, viability
Assay: Anticancer human tumor 138582-337-R-J1-PDC cell line growth inhibition [IpAb];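 note: spheroids exposed to compounds for seven days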
Settings: curve of first compound; second compound 10 µM
Entries and their IC50 values follow.
PARAMETER: IC50

CCCS(=O)(=O)Nc1ccc(F)c(C(=O)c2c[nH]c3ncc(-c4ccc(Cl)cc4)cc23)c1F + CC(C)NCC(C(=O)N1CCN(c2ncnc3c2C(C)CC3O)CC1)c1ccc(Cl)cc1 :: < 31.6 nM
CC(C)n1nc(-c2ccc3oc(N)nc3c2)c2c(N)ncnc21 + CC(C)NCC(C(=O)N1CCN(c2ncnc3c2C(C)CC3O)CC1)c1ccc(Cl)cc1 :: < 0.316 nM
Cn1cnc2c(F)c(Nc3ccc(Br)cc3Cl)c(C(=O)NOCCO)cc21 + CC(C)NCC(C(=O)N1CCN(c2ncnc3c2C(C)CC3O)CC1)c1ccc(Cl)cc1 :: < 9.49 nM
CC(C)(C)c1cnc(CSc2cnc(NC(=O)C3CCNCC3)s2)o1 + CC(C)NCC(C(=O)N1CCN(c2ncnc3c2C(C)CC3O)CC1)c1ccc(Cl)cc1 :: < 9.49 nM
COc1c(OCCCN2CCOCC2)ccc2c3n(c(=NC(=O)c4cnc(N)nc4)nc12)CCN3 + CC(C)NCC(C(=O)N1CCN(c2ncnc3c2C(C)CC3O)CC1)c1ccc(Cl)cc1 :: < 3.16 nM
C=CC(=O)N1CCN(c2nc(=O)n(-c3c(C)ccnc3C(C)C)c3nc(-c4c(O)cccc4F)c(F)cc23)C(C)C1 (stereo unspecified) + CC(C)NCC(C(=O)N1CCN(c2ncnc3c2C(C)CC3O)CC1)c1ccc(Cl)cc1 :: 31.6 nM
Cc1nc(NC(=O)N2CCCC2C(N)=O)sc1-c1ccnc(C(C)(C)C(F)(F)F)c1 (stereo unspecified) + CC(C)NCC(C(=O)N1CCN(c2ncnc3c2C(C)CC3O)CC1)c1ccc(Cl)cc1 :: < 31.6 nM
Cn1ncc(Cl)c1-c1cc(C(=O)NC(CN)Cc2cccc(F)c2)sc1Cl (stereo unspecified) + CC(C)NCC(C(=O)N1CCN(c2ncnc3c2C(C)CC3O)CC1)c1ccc(Cl)cc1 :: 686 nM
CC(=O)c1c(C)c2cnc(Nc3ccc(N4CCNCC4)cn3)nc2n(C2CCCC2)c1=O + CC(C)NCC(C(=O)N1CCN(c2ncnc3c2C(C)CC3O)CC1)c1ccc(Cl)cc1 :: < 0.949 nM
Cn1ncnc1[C@H]1c2n[nH]c(=O)c3cc(F)cc(c23)N[C@@H]1c1ccc(F)cc1 + CC(C)NCC(C(=O)N1CCN(c2ncnc3c2C(C)CC3O)CC1)c1ccc(Cl)cc1 :: < 0.316 nM
C=CCn1c(=O)c2cnc(Nc3ccc(N4CCN(C)CC4)cc3)nc2n1-c1cccc(C(C)(C)O)n1 + CC(C)NCC(C(=O)N1CCN(c2ncnc3c2C(C)CC3O)CC1)c1ccc(Cl)cc1 :: < 31.6 nM

---

Tested on: 138582-337-R-J1-PDC spheroids with HUVEC/MSC, viability
Experiment: Anticancer human tumor 138582-337-R-J1-PDC cell line growth inhibition [IpAb];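 note: spheroids exposed to compounds for seven days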;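 for viability, T/C: 100% = DMSO vehicle control viability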
Settings: second compound 0.0316 µM; first compound 0.1 µM; stronger effect = lower value
PARAMETER: viability, T/C (%)

CC(C)n1nc(-c2ccc3oc(N)nc3c2)c2c(N)ncnc21 + CCN1CCN(Cc2ccc(Nc3ncc(F)c(-c4cc(F)c5nc(C)n(C(C)C)c5c4)n3)nc2)CC1 :: 38.7
CC1(C)CCC(CN2CCN(c3ccc(C(=O)NS(=O)(=O)c4ccc(NCC5CCOCC5)c([N+](=O)[O-])c4)c(Oc4cnc5[nH]ccc5c4)c3)CC2)=C(c2ccc(Cl)cc2)C1 + CCN1CCN(Cc2ccc(Nc3ncc(F)c(-c4cc(F)c5nc(C)n(C(C)C)c5c4)n3)nc2)CC1 :: 86.7
Cc1nc(NC(=O)N2CCCC2C(N)=O)sc1-c1ccnc(C(C)(C)C(F)(F)F)c1 (configuration not stated) + CCN1CCN(Cc2ccc(Nc3ncc(F)c(-c4cc(F)c5nc(C)n(C(C)C)c5c4)n3)nc2)CC1 :: 82.3
CCCS(=O)(=O)Nc1ccc(F)c(C(=O)c2c[nH]c3ncc(-c4ccc(Cl)cc4)cc23)c1F + CCN1CCN(Cc2ccc(Nc3ncc(F)c(-c4cc(F)c5nc(C)n(C(C)C)c5c4)n3)nc2)CC1 :: 96.8
Cn1ncc(Cl)c1-c1cc(C(=O)NC(CN)Cc2cccc(F)c2)sc1Cl (configuration not stated) + CCN1CCN(Cc2ccc(Nc3ncc(F)c(-c4cc(F)c5nc(C)n(C(C)C)c5c4)n3)nc2)CC1 :: 70.8
COc1c(OCCCN2CCOCC2)ccc2c3n(c(=NC(=O)c4cnc(N)nc4)nc12)CCN3 + CCN1CCN(Cc2ccc(Nc3ncc(F)c(-c4cc(F)c5nc(C)n(C(C)C)c5c4)n3)nc2)CC1 :: 35.1
Cn1nccc1Nc1nccc(-c2ccn(C(CO)c3ccc(Cl)c(F)c3)c(=O)c2)n1 (configuration not stated) + CCN1CCN(Cc2ccc(Nc3ncc(F)c(-c4cc(F)c5nc(C)n(C(C)C)c5c4)n3)nc2)CC1 :: 90.5

---

Test system: 138582-337-R-J1-PDC spheroids with HUVEC/MSC, viability
Assay: Anticancer human tumor 138582-337-R-J1-PDC cell line growth inhibition [IpAb];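 note: spheroids exposed to compounds for seven days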
Conditions: curve of first compound; second compound 1 µM
PARAMETER: IC50 (nM)

Cc1nc(NC(=O)N2CCCC2C(N)=O)sc1-c1ccnc(C(C)(C)C(F)(F)F)c1 (centres undefined) + CC(C)NCC(C(=O)N1CCN(c2ncnc3c2C(C)CC3O)CC1)c1ccc(Cl)cc1 :: 704
Cn1ncc(Cl)c1-c1cc(C(=O)NC(CN)Cc2cccc(F)c2)sc1Cl (centres undefined) + CCN1CCN(Cc2ccc(Nc3ncc(F)c(-c4cc(F)c5nc(C)n(C(C)C)c5c4)n3)nc2)CC1 :: 792

---

System: 138582-337-R-J1-PDC spheroids with HUVEC/MSC, viability
Assay: Anticancer human tumor 138582-337-R-J1-PDC cell line growth inhibition [IpAb];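 note: spheroids exposed to compounds for seven days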
Details: curve of first compound; second compound 1 µM
PARAMETER: IC50

C=CCn1c(=O)c2cnc(Nc3ccc(N4CCN(C)CC4)cc3)nc2n1-c1cccc(C(C)(C)O)n1 + CC(C)NCC(C(=O)N1CCN(c2ncnc3c2C(C)CC3O)CC1)c1ccc(Cl)cc1 :: > 10 µM
C=CC(=O)N1CCN(c2nc(=O)n(-c3c(C)ccnc3C(C)C)c3nc(-c4c(O)cccc4F)c(F)cc23)C(C)C1 (centres undefined) + CC(C)NCC(C(=O)N1CCN(c2ncnc3c2C(C)CC3O)CC1)c1ccc(Cl)cc1 :: > 10 µM
C=CCn1c(=O)c2cnc(Nc3ccc(N4CCN(C)CC4)cc3)nc2n1-c1cccc(C(C)(C)O)n1 + CCN1CCN(Cc2ccc(Nc3ncc(F)c(-c4cc(F)c5nc(C)n(C(C)C)c5c4)n3)nc2)CC1 :: > 10 µM
Cn1ncnc1[C@H]1c2n[nH]c(=O)c3cc(F)cc(c23)N[C@@H]1c1ccc(F)cc1 + CC(C)NCC(C(=O)N1CCN(c2ncnc3c2C(C)CC3O)CC1)c1ccc(Cl)cc1 :: > 0.1 µM
